The reported numbers originate from ChEMBL document CHEMBL1138555.

Tested on: MDA-N
method: Growth inhibition of human MDA-N cells after 48 hrs by sulforhodamine B assay
Type: functional
Kindly supply the reported GI50 values for the records listed here.
Field format: number, assumed µM, no unit text.

query: Any idea what its GI50 is? The compound is O=C(c1cc(Cl)cc(Cl)c1)N1CCN(C(=O)c2cc(Cl)cc(Cl)c2)C1=S
result: 13

query: Similarly, COc1cc(C(=O)N2CCN(C=O)C2=S)cc(OC)c1OC ?
result: 17.9

query: Subsequent entry: O=C(c1ccc(Cl)cc1Cl)N1CCN(C(=O)c2ccc(Cl)cc2Cl)C1=S
result: 20

query: And then O=CN1CCN(C(=O)c2ccco2)C1=S , what is it?
result: 9.1

query: And what about the compound O=C(c1cccs1)N1CCN(C(=O)c2cccs2)C1=S ?
result: 2.6

query: Also O=C(c1ccco1)N1CCN(C(=O)c2ccco2)C1=S ?
result: 5

query: Follow-up item: COc1cc(C(=O)N2CCN(C(=O)c3cc(OC)c(OC)c(OC)c3)C2=S)cc(OC)c1OC
result: 15

query: // next record O=C(c1ccc(Cl)c(Cl)c1)N1CCN(C(=O)c2ccc(Cl)c(Cl)c2)C1=S
result: 18.3

----------
System: SR
method: Growth inhibition of human SR cells after 48 hrs by sulforhodamine B assay
Format: functional
measure-name: log10 of GI50 (log10 of the value in nM)
Plainly stated, the numbers are log10 of GI50 given in nM.

query: Using the record for N#CC(C#N)=CN1CCN(C(=O)c2ccccc2)C1=S , report its log10 of GI50.
result: 4.27

query: Repeat for the following compound: N#C/C(=C\N1CCN(C(=O)c2ccco2)C1=S)C(=O)c1ccccc1
result: 3.45

query: Can you handle O=C(c1cccs1)N1CCN(C(=O)c2cccs2)C1=S next?
result: 3.53

query: Okay, and O=C(c1cc(Cl)cc(Cl)c1)N1CCN(C(=O)c2cc(Cl)cc(Cl)c2)C1=S ?
result: 3.52

query: // same read-out, input: COC(=O)/C(C#N)=C/N1CCN(C(=O)c2ccco2)C1=S
result: 3.32

query: And what about the compound O=C(c1ccco1)N1CCN(C(=O)c2ccco2)C1=S ?
result: 3.26

query: Try the compound N#C/C(=C\N1CCN(C(=O)c2ccco2)C1=S)C(=O)Nc1ccc(Cl)cc1
result: 3.20

query: Try CC(=O)/C(=C/N1CCN(C(=O)c2ccco2)C1=S)C(=O)c1ccccc1 next.
result: 3.43

query: Can you handle CCOC(=O)/C(=C/N1CCN(C(=O)c2ccco2)C1=S)C(=O)c1ccccc1 next?
result: 3.38

query: Please do the same for CC(=O)C(=CN1CCN(C(=O)c2ccco2)C1=S)C(C)=O as well.
result: 3.36

query: And the next one, O=C(C(=CN1CCN(C(=O)c2ccco2)C1=S)C(=O)c1ccccc1)c1ccccc1 ?
result: 3.11

query: Another compound to check: N#C/C(=C\N1CCN(C(=O)c2ccco2)C1=S)C(N)=O
result: 3.48

query: Next: O=CN1CCN(C(=O)c2ccco2)C1=S
result: 3.32

query: And the next one, N#CC(C#N)=CN1CCN(C(=O)c2ccco2)C1=S ?
result: 3.30

----------
Provide the recorded log10(GI50) for the entries that follow.
Test system: U-251
method: Growth inhibition of human U251 cells after 48 hrs by sulforhodamine B assay
Format: functional
condition-description: U-251, 48 h
Note the log scale: values are log10 of GI50 expressed in µM.

query: Looking for the measured log10(GI50) of O=C(C(=CN1CCN(C(=O)c2ccco2)C1=S)C(=O)c1ccccc1)c1ccccc1 , can you help?
result: 0.43

query: What about this compound? COc1cc(C(=O)N2CCN(C=O)C2=S)cc(OC)c1OC
result: 1.21

query: Follow-up item: COc1cc(C(=O)N2CCN(C(=O)c3cc(OC)c(OC)c(OC)c3)C2=S)cc(OC)c1OC
result: 1.21

query: One more compound: O=C(c1cccs1)N1CCN(C(=O)c2cccs2)C1=S
result: 0.90

query: Same thing, different compound: N#CC(C#N)=CN1CCN(C(=O)c2ccccc2)C1=S
result: 1.58

query: Next record, please: CC(=O)/C(=C/N1CCN(C(=O)c2ccco2)C1=S)C(=O)c1ccccc1
result: 1.13

query: Let us now turn to O=C(c1ccc(Cl)c(Cl)c1)N1CCN(C(=O)c2ccc(Cl)c(Cl)c2)C1=S
result: 1.21

query: How about this compound: N#C/C(=C\N1CCN(C(=O)c2ccco2)C1=S)C(=O)Nc1ccc(Cl)cc1
result: 1.24

query: Try COC(=O)/C(C#N)=C/N1CCN(C(=O)c2ccco2)C1=S next.
result: 0.83

query: And then O=C(c1cc(Cl)cc(Cl)c1)N1CCN(C(=O)c2cc(Cl)cc(Cl)c2)C1=S , what is it?
result: 1.11

----------
Tested on: OVCAR-3
method: Growth inhibition of human OVCAR-3 cells after 48 hrs by sulforhodamine B assay
Assay type: functional
condition-description: OVCAR-3, 48 h
measure-name: GI50 (µM)
Output spec: scalar in µM, unitless text.

query: Request the reported GI50 associated with O=C(c1ccc(Cl)c(Cl)c1)N1CCN(C(=O)c2ccc(Cl)c(Cl)c2)C1=S
result: 17.1

query: What about COC(=O)/C(=C\N1CCN(C(=O)c2ccco2)C1=S)C(C)=O ?
result: 2.7

query: Also, O=C(c1ccc(Cl)cc1Cl)N1CCN(C(=O)c2ccc(Cl)cc2Cl)C1=S please.
result: 19.7

query: Please give the result for N#C/C(=C\N1CCN(C(=O)c2ccco2)C1=S)C(N)=O too.
result: 19

query: Please give the result for COc1cc(C(=O)N2CCN(C=O)C2=S)cc(OC)c1OC too.
result: 16.9

query: Same question, O=C(c1cccs1)N1CCN(C(=O)c2cccs2)C1=S this time
result: 3.5

query: // next record COc1cc(C(=O)N2CCN(C(=O)c3cc(OC)c(OC)c(OC)c3)C2=S)cc(OC)c1OC
result: 15.2

query: Also, O=C(C(=CN1CCN(C(=O)c2ccco2)C1=S)C(=O)c1ccccc1)c1ccccc1 please.
result: 7.3

query: Subsequent entry: O=CN1CCN(C(=O)c2ccco2)C1=S
result: 4.2

query: Entry N#CC(C#N)=CN1CCN(C(=O)c2ccccc2)C1=S please
result: 36.4

query: Next compound up: N#C/C(=C\N1CCN(C(=O)c2ccco2)C1=S)C(=O)Nc1ccc(Cl)cc1
result: 15.5

----------
System: 786-0
method: Growth inhibition of human 786-0 cells after 48 hrs by sulforhodamine B assay
Type: functional
condition-description: 786-0, 48 h
measure-name: GI50 (µM)
Write the answer as a number in µM, unit excluded.

query: I'd like to know its GI50. The compound in question is O=C(c1ccco1)N1CCN(C(=O)c2ccco2)C1=S
result: 3.3

query: N#C/C(=C\N1CCN(C(=O)c2ccco2)C1=S)C(=O)c1ccccc1 , same question.
result: 16.1

query: Item: COc1cc(C(=O)N2CCN(C(=O)c3cc(OC)c(OC)c(OC)c3)C2=S)cc(OC)c1OC
result: 11.4

query: Moving on to O=C(c1cc(Cl)cc(Cl)c1)N1CCN(C(=O)c2cc(Cl)cc(Cl)c2)C1=S
result: 2.9

query: Then CCOC(=O)/C(=C/N1CCN(C(=O)c2ccco2)C1=S)C(=O)c1ccccc1 ?
result: 12.9

query: Try the compound N#CC(C#N)=CN1CCN(C(=O)c2ccccc2)C1=S
result: 38.9

query: Same again, this time with O=CN1CCN(C(=O)c2ccco2)C1=S
result: 3.3

query: What do we get for CC(=O)C(=CN1CCN(C(=O)c2ccco2)C1=S)C(C)=O ?
result: 5.3

query: Thanks! And CC(=O)/C(=C/N1CCN(C(=O)c2ccco2)C1=S)C(=O)c1ccccc1 ?
result: 11.2

query: Continue with N#C/C(=C\N1CCN(C(=O)c2ccco2)C1=S)C(=O)Nc1ccc(Cl)cc1
result: 17.4

query: Also O=C(c1cccs1)N1CCN(C(=O)c2cccs2)C1=S , if possible.
result: 2.4

----------
Test system: SK-OV-3
method: Growth inhibition of human SKOV3 cells after 48 hrs by sulforhodamine B assay
Assay type: functional
condition-description: SK-OV-3, 48 h
measure-name: GI50 (µM)
// note: answer is a bare numeric in µM

query: Requested field: GI50. Item: N#C/C(=C\N1CCN(C(=O)c2ccco2)C1=S)C(=O)c1ccccc1
result: 37.4

query: Then O=C(c1ccc(Cl)c(Cl)c1)N1CCN(C(=O)c2ccc(Cl)c(Cl)c2)C1=S ?
result: 18.2

query: Another compound to look at: O=C(C(=CN1CCN(C(=O)c2ccco2)C1=S)C(=O)c1ccccc1)c1ccccc1
result: 41.8

query: O=C(c1ccco1)N1CCN(C(=O)c2ccco2)C1=S ?
result: 16

query: Ok, now N#CC(C#N)=CN1CCN(C(=O)c2ccco2)C1=S
result: 33.1

query: Please give the result for O=C(c1cc(Cl)cc(Cl)c1)N1CCN(C(=O)c2cc(Cl)cc(Cl)c2)C1=S too.
result: 15.3

query: // query: COc1cc(C(=O)N2CCN(C=O)C2=S)cc(OC)c1OC
result: 21.9

query: Another compound: COC(=O)/C(=C\N1CCN(C(=O)c2ccco2)C1=S)C(C)=O
result: 31.3
